Where these numbers come from: patent US20210261583A1

Item-by-item account of IC50
System: cancer cells
method: Cytotoxicity (IC50)
Format: cell-based
Report the value in nM with no unit label.

Lab book: IC50 of CCCCCCCCc1ccc(C(=O)[C@@H]2C[C@@H](OP(=O)(O)O)CN2)cc1.Cl [Compound 29] noted as 12900

---

Test system: CD98
method: Nutrient transporter (CD98) down-regulation
Type: cell-based
measurement_context: 40 μM
assay_endpoint: inhibition at 40 µM (%)
Report the value in % with no unit label.

Illustrative cases are given below, each with its answer.
>>> df
                                   molecule       assay_endpoint  quantity_unit  reported_result
0  CCCCCCCCc1ccc(C(=O)[C@@H]2C[C@@H](O)CN2)cc1.Cl  inhibition at 40 µM              %               48
1  CCCCCCCCc1ccc(C(=O)[C@H]2C[C@H](CO)CN2)cc1.Cl [Compound 22, hydrochloride]  inhibition at 40 µM              %               61
2  CCCCCCCCc1ccc(CC(=O)[C@H]2C[C@H](O)CN2)cc1.Cl  inhibition at 40 µM              %               54
3  CCCCCCCCc1ccc(CC(=O)[C@@H]2C[C@@H](OP(=O)(O)O)CN2)cc1.Cl  inhibition at 40 µM              %                0

Lab book: inhibition at 40 µM of CCCCCCCCc1ccc([C@@H]2CCC3C[C@H](CO)CN32)cc1.Cl (stereo partly drawn) [Compound 14, hydrochloride] noted as 68

Lab book: inhibition at 40 µM of CCCCCCCCc1ccc(C(=O)[C@H]2C[C@H](O)CN2)cc1.Cl noted as 41

Lab book: inhibition at 40 µM of CCCCCCCCc1ccc(CC(=O)[C@@H]2C[C@@H](O)CN2)cc1.Cl noted as 59

Lab book: inhibition at 40 µM of CCCCCCCCc1ccc(CC(=O)[C@H]2C[C@H](OP(=O)(O)O)CN2)cc1.Cl noted as 8

Lab book: inhibition at 40 µM of CCCCCCCCc1ccc(C(=O)[C@@H]2CCCN2)cc1.Cl noted as 33
